Can you tell me IC50 for the items I'm about to list?
Molecular target: TRPC5 (Homo sapiens, UniProt Q9UL62)
Construct: expressed in transfected cells; host or cells: HEK 293
Sequence (Q9UL62 whole entry): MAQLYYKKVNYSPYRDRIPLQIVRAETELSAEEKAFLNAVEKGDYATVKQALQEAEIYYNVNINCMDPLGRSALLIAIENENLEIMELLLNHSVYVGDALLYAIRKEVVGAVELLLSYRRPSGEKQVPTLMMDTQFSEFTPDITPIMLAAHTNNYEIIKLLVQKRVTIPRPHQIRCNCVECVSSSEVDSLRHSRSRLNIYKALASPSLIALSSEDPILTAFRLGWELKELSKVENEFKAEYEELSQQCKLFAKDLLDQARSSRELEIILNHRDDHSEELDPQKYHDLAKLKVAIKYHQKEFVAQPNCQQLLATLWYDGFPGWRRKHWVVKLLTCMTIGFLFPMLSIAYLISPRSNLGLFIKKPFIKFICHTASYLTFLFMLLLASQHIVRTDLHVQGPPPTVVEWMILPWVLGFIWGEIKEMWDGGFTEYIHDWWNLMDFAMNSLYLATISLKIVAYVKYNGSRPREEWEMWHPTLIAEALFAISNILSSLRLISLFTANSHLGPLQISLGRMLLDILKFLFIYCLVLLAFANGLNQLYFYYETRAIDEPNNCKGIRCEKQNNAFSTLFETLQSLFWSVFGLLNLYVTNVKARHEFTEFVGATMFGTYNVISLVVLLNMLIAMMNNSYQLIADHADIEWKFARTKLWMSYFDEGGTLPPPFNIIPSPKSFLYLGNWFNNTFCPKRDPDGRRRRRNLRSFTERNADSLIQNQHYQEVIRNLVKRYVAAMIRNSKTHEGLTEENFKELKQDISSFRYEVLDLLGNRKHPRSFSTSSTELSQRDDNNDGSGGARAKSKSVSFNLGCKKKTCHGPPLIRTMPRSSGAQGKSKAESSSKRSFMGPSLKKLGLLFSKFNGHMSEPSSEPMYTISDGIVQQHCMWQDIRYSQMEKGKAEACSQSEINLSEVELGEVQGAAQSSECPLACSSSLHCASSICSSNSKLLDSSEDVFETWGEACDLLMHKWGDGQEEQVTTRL
Assay: TRPC5 fluorescence assay, membrane potential dye, flexstation (FLEX)
Format: cell-based
Conditions: Table 6; HEK293 cells overexpressing TRPC5
Method: HEK 293 cells expressing human TRPC5 cells were trypsinised, counted and seeded in black, clear-bottomed 96-well plates at a density of 50,000 cells per well and incubated overnight. Next day, the cells were loaded with membrane potential dye. […] The plates were then placed in the flexstation and fluorescence monitored every 1.52 seconds. After 20 seconds, 10 μL of the appropriate standard agonist was added and the fluorescence monitored for 2 minutes at ex/emm: 530 nm/565 nm.

Prompt: Entry O=c1[nH]ncc(N2CCc3c(ncn3-c3cccc(C(F)(F)F)c3)C2)c1Cl : reported IC50 = ?
Completion: 0.01 to 1000 nM

Prompt: Please do the same for O=c1[nH]ncc(N2CCc3c(ncn3Cc3ccc(F)cc3C(F)(F)F)C2)c1Cl [drawing 844] as well.
Completion: 0.01 to 1000 nM

Prompt: Please do the same for Cc1cccc(C)c1Cn1cnc2c1CCN(c1cn[nH]c(=O)c1Cl)C2 as well.
Completion: 0.01 to 1000 nM

Prompt: Please do the same for O=c1[nH]ncc(N2CCc3ncn(-c4ccccc4C(F)(F)F)c3C2)c1Cl [drawing 847] as well.
Completion: 10000 to 500000 nM

Prompt: Please do the same for Cc1ncccc1Cn1cnc2c1CCN(c1cn[nH]c(=O)c1Cl)C2 as well.
Completion: 1000 to 5000 nM

Prompt: Please do the same for N#Cc1c(N2CCc3c(ncn3Cc3ccccc3C(F)F)C2)cn[nH]c1=O as well.
Completion: 0.01 to 1000 nM

Prompt: Please do the same for O=c1[nH]ncc(N2CCc3c(ncn3Cc3ccc(C(F)(F)F)cc3)C2)c1C1CC1 as well.
Completion: 10000 to 500000 nM

Prompt: Please do the same for N#Cc1ccccc1-n1cnc2c1CN(c1cn[nH]c(=O)c1C#N)CC2 [drawing 841] as well.
Completion: 0.01 to 1000 nM

Prompt: Please do the same for O=c1[nH]ncc(N2CCc3c(ncn3Cc3ccc(C(F)(F)F)nc3)C2)c1Cl as well.
Completion: 10000 to 500000 nM

Prompt: Please do the same for C[C@@H](c1ccccc1C(F)(F)F)n1nnc2c1CCN(c1cn[nH]c(=O)c1Cl)C2 [drawing 908] as well.
Completion: 0.01 to 1000 nM

Prompt: Please do the same for Cc1nc2c(n1Cc1ccccc1C(F)(F)F)CCN(c1c(Cl)cn[nH]c1=O)C2 as well.
Completion: 10000 to 500000 nM

Prompt: Please do the same for O=c1[nH]ncc(N2CCc3c(nnn3Cc3ccccc3C(F)(F)F)C2)c1Br as well.
Completion: 0.01 to 1000 nM

Prompt: Please do the same for Cc1ccccc1Cn1cnc2c1CCN(c1cn[nH]c(=O)c1Cl)C2 [drawing 840] as well.
Completion: 0.01 to 1000 nM

Prompt: Please do the same for O=c1[nH]ncc(N2CCc3c(nnn3Cc3ccc(F)cc3C(F)(F)F)C2)c1Cl as well.
Completion: 0.01 to 1000 nM

Prompt: Please do the same for CC[C@H](c1cccnc1)n1nnc2c1CCN(c1cn[nH]c(=O)c1Cl)C2 as well.
Completion: 1000 to 5000 nM

Prompt: Please do the same for O=c1[nH]ncc(N2CCc3ncn(-c4ccccc4C(F)(F)F)c3C2)c1Cl [drawing 869] as well.
Completion: 1000 to 5000 nM

Prompt: Please do the same for O=c1[nH]ncc(N2CCc3c(ncn3Cc3cccnc3C(F)(F)F)C2)c1Cl as well.
Completion: 1000 to 5000 nM

Prompt: Please do the same for O=c1[nH]ncc(N2CCc3c(ncn3C3CCCCC3)C2)c1Cl as well.
Completion: 10000 to 500000 nM

Prompt: Please do the same for O=c1[nH]ncc(N2CCc3c(nnn3Cc3ccccc3C(F)(F)F)C2)c1Cl [drawing 859] as well.
Completion: 0.01 to 1000 nM

Prompt: Please do the same for O=c1[nH]ncc(N2CCc3c(ncn3Cc3ccc(F)nc3C(F)(F)F)C2)c1Cl as well.
Completion: 1000 to 5000 nM
